Attribution: patent US20150018301A1

Test system: LRRK2 WT (Homo sapiens, UniProt Q5S007)
Sequence (Q5S007 whole entry): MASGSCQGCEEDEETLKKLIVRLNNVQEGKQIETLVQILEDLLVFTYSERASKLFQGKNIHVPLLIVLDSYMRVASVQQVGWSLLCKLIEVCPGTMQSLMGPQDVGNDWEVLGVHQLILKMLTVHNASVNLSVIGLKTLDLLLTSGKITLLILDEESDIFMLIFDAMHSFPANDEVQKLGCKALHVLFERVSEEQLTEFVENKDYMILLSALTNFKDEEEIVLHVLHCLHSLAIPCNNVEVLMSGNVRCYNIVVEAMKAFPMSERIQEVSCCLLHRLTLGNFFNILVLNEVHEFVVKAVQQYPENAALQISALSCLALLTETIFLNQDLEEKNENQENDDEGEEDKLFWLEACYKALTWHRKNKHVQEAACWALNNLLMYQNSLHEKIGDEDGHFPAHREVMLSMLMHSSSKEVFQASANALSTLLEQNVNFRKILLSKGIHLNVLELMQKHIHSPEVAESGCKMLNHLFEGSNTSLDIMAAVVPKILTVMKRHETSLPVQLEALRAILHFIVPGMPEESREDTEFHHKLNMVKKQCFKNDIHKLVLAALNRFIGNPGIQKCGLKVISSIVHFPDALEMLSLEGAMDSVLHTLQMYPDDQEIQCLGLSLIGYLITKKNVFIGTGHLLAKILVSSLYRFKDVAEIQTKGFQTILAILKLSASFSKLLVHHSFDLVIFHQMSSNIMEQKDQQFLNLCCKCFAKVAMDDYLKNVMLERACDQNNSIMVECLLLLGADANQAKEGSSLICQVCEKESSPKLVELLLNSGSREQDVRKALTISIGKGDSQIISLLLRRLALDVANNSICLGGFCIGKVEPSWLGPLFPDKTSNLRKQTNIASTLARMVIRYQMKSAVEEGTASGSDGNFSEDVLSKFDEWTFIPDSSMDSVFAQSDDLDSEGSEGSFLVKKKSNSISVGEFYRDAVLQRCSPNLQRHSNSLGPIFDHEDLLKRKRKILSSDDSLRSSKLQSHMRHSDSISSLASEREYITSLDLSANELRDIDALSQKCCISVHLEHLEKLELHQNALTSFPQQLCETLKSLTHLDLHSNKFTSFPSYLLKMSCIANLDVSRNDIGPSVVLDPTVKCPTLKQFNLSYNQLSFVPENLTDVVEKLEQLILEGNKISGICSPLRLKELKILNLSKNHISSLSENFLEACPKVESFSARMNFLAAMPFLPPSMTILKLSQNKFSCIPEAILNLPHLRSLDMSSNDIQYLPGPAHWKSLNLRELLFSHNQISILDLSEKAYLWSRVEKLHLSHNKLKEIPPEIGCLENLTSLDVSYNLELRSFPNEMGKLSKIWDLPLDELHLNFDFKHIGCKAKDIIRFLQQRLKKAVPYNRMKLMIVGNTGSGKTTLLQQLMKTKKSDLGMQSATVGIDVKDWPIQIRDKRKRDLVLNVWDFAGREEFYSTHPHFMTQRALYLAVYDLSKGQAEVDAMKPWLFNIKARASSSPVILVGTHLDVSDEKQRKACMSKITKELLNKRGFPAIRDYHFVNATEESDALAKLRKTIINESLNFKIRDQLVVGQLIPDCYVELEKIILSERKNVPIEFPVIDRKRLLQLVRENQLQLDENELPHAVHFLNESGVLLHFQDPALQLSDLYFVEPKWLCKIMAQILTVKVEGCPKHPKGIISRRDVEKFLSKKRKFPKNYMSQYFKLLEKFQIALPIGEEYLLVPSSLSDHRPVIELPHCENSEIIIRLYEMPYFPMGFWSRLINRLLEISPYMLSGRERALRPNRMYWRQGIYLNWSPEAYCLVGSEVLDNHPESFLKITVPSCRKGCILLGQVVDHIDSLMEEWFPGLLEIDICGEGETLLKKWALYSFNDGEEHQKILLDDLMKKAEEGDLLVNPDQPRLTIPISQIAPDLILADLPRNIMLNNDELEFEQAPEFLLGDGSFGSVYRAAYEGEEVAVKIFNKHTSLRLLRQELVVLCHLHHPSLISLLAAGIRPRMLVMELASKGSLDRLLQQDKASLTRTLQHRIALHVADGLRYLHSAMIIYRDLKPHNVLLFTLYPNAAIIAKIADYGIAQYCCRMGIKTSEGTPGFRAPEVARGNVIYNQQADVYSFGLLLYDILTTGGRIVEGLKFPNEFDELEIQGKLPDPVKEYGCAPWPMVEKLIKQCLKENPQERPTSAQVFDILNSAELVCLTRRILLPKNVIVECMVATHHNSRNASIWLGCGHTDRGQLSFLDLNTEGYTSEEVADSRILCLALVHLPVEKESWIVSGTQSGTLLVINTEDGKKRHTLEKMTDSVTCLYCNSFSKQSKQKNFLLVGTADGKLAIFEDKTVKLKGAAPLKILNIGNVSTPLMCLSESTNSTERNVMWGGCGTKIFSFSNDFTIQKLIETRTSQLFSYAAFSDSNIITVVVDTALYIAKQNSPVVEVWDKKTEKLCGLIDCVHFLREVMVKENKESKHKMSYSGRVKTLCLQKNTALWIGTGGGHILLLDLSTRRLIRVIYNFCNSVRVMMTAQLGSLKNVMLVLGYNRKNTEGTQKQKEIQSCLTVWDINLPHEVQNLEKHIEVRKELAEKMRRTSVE
Protocol description: In vitro kinase assay: LRRK2-mediated MBP phosphorylation
Format: biochemical
Conditions: Table 3; mean of three experiments
Quantity kind: pIC50
Quick note: pIC50 means taking -log10 of the concentration in moles per liter.

Problem: Fill in the recorded pIC50 for this compound, with LRRK2 WT (Homo sapiens, UniProt Q5S007) as test system: O=C1Nc2ccccc2/C1=C1/Nc2ccccc2/C1=N\O
Solution: 5.32

Problem: Likewise for O=C1Nc2ccc(I)cc2/C1=C/c1cc(Br)c(O)c(Br)c1 ?
Solution: 5.96

----------
Test system: LRRK2 WT (Homo sapiens, UniProt Q5S007)
Protocol description: In vitro kinase assay: LRRK2 autophosphorylation
Assay type: biochemical
Conditions: compound 16 μM; phosphorylation normalized to absence of compound; mean ± S.E.M. of three experiments
What LRRK2 autophosphorylation Average ± SEM was measured for each of the following?

Problem: Fill in the recorded LRRK2 autophosphorylation Average ± SEM for this compound, with LRRK2 WT (Homo sapiens, UniProt Q5S007) as test system: N#C/C(=C\c1ccc(O)c(O)c1)C(N)=S
Solution: 80.5 ± 32.2 % of control

Problem: Likewise for Cl.O=S(=O)(c1cccc2c(I)cccc12)N1CCCNCC1 ?
Solution: 87.3 ± 14.8 % of control

Problem: Likewise for O=S(=O)(NCCNC/C=C/c1ccc(Br)cc1)c1cccc2cnccc12 ?
Solution: 90.8 ± 2.5 % of control

Problem: Likewise for COc1cc(/C=C(\C#N)C(N)=O)cc(CSc2nc3ccccc3s2)c1O ?
Solution: 81.7 ± 27.1 % of control

Problem: Likewise for CN(C)c1ccc(/C=C2\C(=O)Nc3ccccc32)cc1 ?
Solution: 37.5 ± 13.9 % of control

Problem: Likewise for O=c1c(-c2ccc(O)cc2)coc2cc(O)cc(O)c12 ?
Solution: 69.4 ± 37.9 % of control

Problem: Likewise for COC(=O)/C=C/c1cc(O)ccc1O ?
Solution: 73.0 ± 5.3 % of control

Problem: Likewise for COc1cc2ncc(-c3ccccc3)nc2cc1OC ?
Solution: 61.2 ± 9.6 % of control

Problem: Likewise for C#COC1C(C(=O)O)[C@H]2CC[C@@H]1O2 (stereo partly drawn) ?
Solution: 78.8 ± 5.1 % of control

Problem: Likewise for CC(C)c1cc(/C=C(\C#N)C(=O)NCCCc2ccccc2)cc(C(C)C)c1O ?
Solution: 68.5 ± 1.5 % of control

Problem: Likewise for N#CC(C#N)=Cc1cc(O)c(O)c([N+](=O)[O-])c1 ?
Solution: 89 ± 54.9 % of control

Problem: Likewise for N#C/C(=C\c1ccc(O)c(O)c1)C(=O)Nc1ccccc1 ?
Solution: 56.1 ± 27.6 % of control

Problem: Likewise for COC[C@H]1OC(=O)c2coc3c2[C@@]1(C)C1=C(C3=O)[C@@H]2CCC(=O)[C@@]2(C)C[C@H]1OC(C)=O ?
Solution: 83.0 ± 23.6 % of control

Problem: Likewise for CC1(C)[C@H](C=C(Br)Br)[C@@H]1C(=O)O[C@H](C#N)c1cccc(Oc2ccccc2)c1 ?
Solution: 73.9 ± 2.2 % of control

Problem: Likewise for Oc1ccc(-c2nc(-c3ccc(F)cc3)c(-c3ccncc3)[nH]2)cc1 ?
Solution: 64.9 ± 20.9 % of control

Problem: Likewise for CC(C)CC(NC(=O)[C@H](CCC(=O)O)NC(=O)CNC(=O)c1ccc(/C=C/C(=O)O)cc1)C(N)=O (stereo partly drawn) ?
Solution: 63.9 ± 12.0 % of control

Problem: Likewise for CC1(C)[C@H](C=C(Cl)Cl)[C@@H]1C(=O)O[C@H](C#N)c1cccc(Oc2ccccc2)c1 ?
Solution: 66.4 ± 17.4 % of control

Problem: Likewise for OC[C@@H]1O[C@H](n2cnc3cc(Cl)c(Cl)cc32)[C@@H](O)[C@H]1O ?
Solution: 56.4 ± 12.9 % of control

----------
Test system: LRRK2 WT (Homo sapiens, UniProt Q5S007)
Protocol description: In vitro kinase assay: LRRK2 autophosphorylation
Type: biochemical
Conditions: compound 16 μM; phosphorylation normalized to absence of compound; mean ± S.E.M. of three experiments
What LRRK2 autophosphorylation Average ± SEM was measured for each of the following?

Problem: Find the recorded LRRK2 autophosphorylation Average ± SEM belonging to CC(C)(C)n1nc(-c2ccc(Cl)cc2)c2c(N)ncnc21 and report it.
Solution: 45.7 ± 22.1 % of control

Problem: Likewise for O=c1c(O)c(-c2ccc(O)c(O)c2)oc2cc(O)cc(O)c12 [Inhibitor 62, Quercetin dihydrate] ?
Solution: 39.2 ± 39.9 % of control

Problem: Likewise for O=C(O)c1cc(NCc2cc(O)ccc2O)ccc1O ?
Solution: 103.0 ± 4.4 % of control

Problem: Likewise for Nc1ncc2[nH]cnc2n1 ?
Solution: 95.3 ± 5.9 % of control

Problem: Likewise for CC(C)(C)c1cc(C=C(C#N)C#N)cc(C(C)(C)C)c1O ?
Solution: 109.0 ± 19.7 % of control

----------
Test system: G2019S LRRK2 (Homo sapiens, UniProt Q5S007, G2019S)
Sequence (Q5S007 whole entry G2019S): as the sequence (Q5S007 whole entry) above, with G2019S counted along it
Protocol description: In vitro kinase assay: LRRK2-mediated phosphorylation of 4E-BP1
Format: biochemical
Quantity kind: LRRK2-mediated phosphorylation of 4E-BP1

cpd_smiles=Cc1ccc(NC(=O)c2cccc(N(C)C)c2)cc1NC(=O)c1ccc(O)cc1 result="did not inhibit"
cpd_smiles=O=C1Nc2ccccc2/C1=C1/Nc2ccccc2/C1=N\O result=inhibited
cpd_smiles=O=C1Nc2ccc(I)cc2/C1=C/c1cc(Br)c(O)c(Br)c1 result=inhibited
cpd_smiles=O=C1Nc2ccccc2/C1=C1/Nc2ccccc2C1=O result="did not inhibit"

----------
Test system: LRRK2 WT (Homo sapiens)
Protocol description: In vitro kinase assay: LRRK2 autophosphorylation
Assay type: biochemical
Conditions: compound 16 μM; phosphorylation normalized to absence of compound; mean ± S.E.M. of three experiments
What LRRK2 autophosphorylation Average ± SEM was measured for each of the following?

Problem: Find the recorded LRRK2 autophosphorylation Average ± SEM belonging to COc1cccc(-c2cc(=O)c3ccccc3o2)c1N [Inhibitor 1] and report it.
Solution: 77.9 ± 30.6 % of control

Problem: Likewise for N=C(N)NCCNS(=O)(=O)c1cccc2cnccc12 [Inhibitor 37] ?
Solution: 81.1 ± 17.3 % of control

Problem: Likewise for Cn1cnc2c(NCc3ccccc3)nc(NCCO)nc21 [Inhibitor 46] ?
Solution: 72.5 ± 2.1 % of control

Problem: Likewise for CN(C)CCCn1cc(C2=C(c3c[nH]c4ccccc34)C(=O)NC2=O)c2ccccc21 [Inhibitor 31, GP109203X, reference compound] ?
Solution: 16.1 ± 8.8 % of control

Problem: Likewise for N#C/C(=C\c1ccc(O)c(O)c1)C(=O)NCc1ccccc1 [Inhibitor 25] ?
Solution: 78.5 ± 5.8 % of control

Problem: Likewise for N#C/C(=C\c1ccc(O)c(O)c1)C(N)=O [Inhibitor 13] ?
Solution: 81.0 ± 13.4 % of control

Problem: Likewise for CC(=O)c1c(O)c(C)c(O)c(Cc2c(O)c3c(c(C(=O)/C=C/c4ccccc4)c2O)OC(C)(C)C=C3)c1O [Inhibitor 58] ?
Solution: 28.1 ± 39.8 % of control

Problem: Likewise for C[C@@]12C(=O)OC(=O)[C@]1(C)[C@H]1CC[C@@H]2O1 [Inhibitor 72] ?
Solution: 69.1 ± 8.8 % of control

Problem: Likewise for O=C1c2ccccc2-c2n[nH]c3cccc1c23 [Inhibitor 68, SP600125, reference compound] ?
Solution: 18.3 ± 22.8 % of control

Problem: Likewise for CC(C)C(C(=O)OC(C#N)c1cccc(Oc2ccccc2)c1)c1ccc(Cl)cc1 (stereo not shown) [Inhibitor 82] ?
Solution: 80.4 ± 13.0 % of control

Problem: Likewise for O=S(=O)(c1cccc2cnccc12)N1CCCNCC1 [Inhibitor 38] ?
Solution: 84.3 ± 21.9 % of control

Problem: Likewise for Cc1ccc(-c2nn(C(C)(C)C)c3ncnc(N)c23)cc1 [Inhibitor 24] ?
Solution: 88.3 ± 17.1 % of control

Problem: Likewise for O=P(O)(O)CCc1ccc2ccccc2c1O [Inhibitor 21] ?
Solution: 120.8 ± 54.1 % of control

Problem: Likewise for Cl.c1ccc([C@H]2CN3CCSC3=N2)cc1 [Inhibitor 78] ?
Solution: 74.6 ± 1.7 % of control

Problem: Likewise for N#CC(C#N)=C(N)/C(C#N)=C/c1ccc2[nH]ccc2c1 [Inhibitor 27] ?
Solution: 73.2 ± 8.8 % of control

Problem: Likewise for Oc1cc(O)cc(/C=C/c2ccc(O)c(O)c2)c1 [Inhibitor 23] ?
Solution: 87 ± 38.6 % of control

Problem: Likewise for N#CC(C#N)=C(N)/C(C#N)=C/c1cc(O)c(O)c(O)c1 [Inhibitor 15] ?
Solution: 79 ± 49.6 % of control

Problem: Likewise for N#CC(C#N)=Cc1ccc([N+](=O)[O-])c(O)c1 [Inhibitor 26] ?
Solution: 82.3 ± 10.5 % of control

Problem: Likewise for C[S+]([O-])c1ccc(-c2nc(-c3ccc(F)cc3)c(-c3ccncc3)[nH]2)cc1 (stereo not shown) [Inhibitor 3] ?
Solution: 75.1 ± 7.8 % of control
